Each recorded value in this set is attributed to the supplement of paper PMC10567573.

B1: FAM189A2 (parent)
chain: PRCDLVDLGEGKICFCCEEFQPAK

# Variants of: B1
# methodSummary: protein stability index of a GFP-peptide fusion (GPS, HEK-293T) (PSI 1-6); higher = more stable;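 also: lentivirally expressed fusions sorted by FACS into six bins by GFP to DsRed ratio, PSI derived from sequencing read proportions per bin multiplied by bin number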
# testContext: c terminus: a fixed tail appended

variantLabel	protein stability index
C16Q	3.89
F20Y	3.1
I13F	3.02
I13A	3.01
P22T	3.23
P22K	3.42
A23Q	3.5
E18C	2.62
L5Y	2.85
E18K	2.77
I13N	3.78
C14D	4.07
P1L	2.84
C3N	2.25
F15V	3.43
V6G	3.46
C14Q	3.79
G9I	2.24
F20A	3.32
V6F	2.71
C16T	3.05
C14H	3.48
C16N	3.93
Q21C	4.17
E18F	2.29
C3S	2.43
